Target: human B1R receptor (hB1R) (Homo sapiens)
Construct: expressed in transfected cells; host or cells: CHO K1 cells
Sequence (P46663 whole entry): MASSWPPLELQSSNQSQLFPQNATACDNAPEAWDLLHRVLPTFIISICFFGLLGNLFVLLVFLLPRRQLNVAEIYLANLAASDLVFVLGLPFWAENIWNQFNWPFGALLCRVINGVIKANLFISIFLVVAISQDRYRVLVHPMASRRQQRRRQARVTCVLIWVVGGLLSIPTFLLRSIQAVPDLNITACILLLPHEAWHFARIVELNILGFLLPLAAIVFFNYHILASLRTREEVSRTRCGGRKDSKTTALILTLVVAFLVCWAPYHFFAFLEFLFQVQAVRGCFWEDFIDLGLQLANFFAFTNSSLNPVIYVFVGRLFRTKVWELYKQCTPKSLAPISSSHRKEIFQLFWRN
Test: Functional investigation on the bradykinin receptor 1 (B1R), FLIPR Ca2+ assay, hB1R cells
Type: cell-based
The label depends only on inhibition at 10 µM: true (1) if it is at least 80%, false (0) if it is smaller.

Worked examples, 5 compounds total:
| COMPOUND | LABEL |
| --- | --- |
| COc1cc(C)c(S(=O)(=O)N(C)C(C)c2nc3cccc(C(=O)N4CCC5(CC4)CCN(C(=O)c4cc(C(C)(C)C)nn4C)CC5)c3[nH]2)c(C)c1 (stereo not drawn) | false (0) |
| COc1cc(C)c(S(=O)(=O)N(C)C(C)c2nc3cccc(C(=O)N4CCC5(CCN(C(=O)c6ccc(C#N)cc6)CC5)CC4)c3[nH]2)c(C)c1 (stereo not drawn) | false (0) |
| COc1cc(C)c(S(=O)(=O)N(C)CCc2nc3c(C(=O)N4CCC5(CC4)CCN(c4ccncc4)CC5)cccc3[nH]2)c(C)c1 | true (1) |
| COc1cc(C)c(S(=O)(=O)N(C)Cc2nc3cccc(C(=O)N4CCC5(CCN(c6ccncc6)CC5)C4)c3[nH]2)c(C)c1 | true (1) |
| COc1cc(C)c(S(=O)(=O)N(C)C(C)c2nc3cccc(C(=O)N4CCC5(CCN(Cc6cccc(C#N)c6)CC5)CC4)c3[nH]2)c(C)c1 (stereo not drawn) | true (1) |

Here is another compound to look at.
Query: Dear colleague, could you confirm whether Cc1cc(S(=O)(=O)N(C)Cc2nc3cccc(C(=O)N4CCC5(CC4)CCN(c4ccncc4)CC5)c3[nH]2)c(C)cc1Cl has inhibition at 10 µM at or above 80%?
Response: true (1)
